Values compiled from the supplement of paper PMC9112550.

System: Escherichia coli TOP10;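 note: peptides expressed intracellularly from a pBAD plasmid library in pooled LB shake-flask culture, induced with 0.3% L-arabinose, DNA abundance read by NGS, three biological replicates, DESeq2 with apeglm shrinkage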
Assay: shrunken log2 fold change of peptide-encoding DNA abundance (4.5 h post-induction vs induction); higher = less antimicrobial activity (less host growth inhibition)
Conditions: time post-induction: 4.5 h; library: site-saturation at positions 5, 18, 19, 20
ATTRIBUTE_MEASURED: shrunken log2 fold change
// return just the number, without any unit appended

Per the record, "RRIRMRPPRLPRPRPRPGQMPRP" has shrunken log2 fold change of 0.123

Per the record, "RRIRKRPPRLPRPRPRPDVWPRP" has shrunken log2 fold change of 0.679

Per the record, "RRIRRRPPRLPRPRPRPCHPPRP" has shrunken log2 fold change of -0.0611

Per the record, "RRIRYRPPRLPRPRPRPIQTPRP" has shrunken log2 fold change of -0.499

Per the record, "RRIRNRPPRLPRPRPRPIPAPRP" has shrunken log2 fold change of -0.0451

Per the record, "RRIRQRPPRLPRPRPRPFIGPRP" has shrunken log2 fold change of -0.281

Per the record, "RRIRCRPPRLPRPRPRPALFPRP" has shrunken log2 fold change of 0.344

Per the record, "RRIRCRPPRLPRPRPRPMDKPRP" has shrunken log2 fold change of -0.131

Per the record, "RRIRERPPRLPRPRPRPLAMPRP" has shrunken log2 fold change of -0.246

Per the record, "RRIRQRPPRLPRPRPRPWFHPRP" has shrunken log2 fold change of 0.00902

Per the record, "RRIRKRPPRLPRPRPRPYIYPRP" has shrunken log2 fold change of -0.0483

Per the record, "RRIRSRPPRLPRPRPRPIQQPRP" has shrunken log2 fold change of -0.0226

Per the record, "RRIRMRPPRLPRPRPRPTEWPRP" has shrunken log2 fold change of 0.555

Per the record, "RRIRPRPPRLPRPRPRPFECPRP" has shrunken log2 fold change of -0.242

Per the record, "RRIRPRPPRLPRPRPRPNFQPRP" has shrunken log2 fold change of -0.00527
